# tested on: T1, SgrAI P27W (UniProt Q9F6L0 1-339, P27W)
# T1 sequence: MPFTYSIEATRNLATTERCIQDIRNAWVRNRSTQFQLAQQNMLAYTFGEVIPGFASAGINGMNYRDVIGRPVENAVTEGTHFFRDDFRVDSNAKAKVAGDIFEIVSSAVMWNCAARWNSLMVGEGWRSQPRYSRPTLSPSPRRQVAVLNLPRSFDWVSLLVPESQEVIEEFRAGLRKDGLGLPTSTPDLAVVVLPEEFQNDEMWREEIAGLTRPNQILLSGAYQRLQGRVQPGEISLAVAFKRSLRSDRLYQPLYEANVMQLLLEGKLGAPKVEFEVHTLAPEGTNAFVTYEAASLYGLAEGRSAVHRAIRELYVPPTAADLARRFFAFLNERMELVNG
# method: fluorescence polarization anisotropy; 10 mM Ca2+; FPA: 20 mM Tris-OAc pH 8.0, 50 mM KOAc, 10 mM Ca(OAc)2, 1 mM DTT, 10% glycerol, 4 C, 1 nM DNA; native PAGE: same binding buffer, 1 uM SgrAI, 30 min at 4 C, gel
# test context: protein: recombinant; chain copies: 2; label: 5' FLO on top strand only
observable: pKd
Keep in mind that pKd stands for -log10 of concentration in molar terms.

## Task Dear colleague, I am looking for the recorded pKd of the following binder: PCP (precleaved primary site DNA) (dsDNA, 5' phosphate at the cleavage site) DNA 1: GATGCGTGGGTCTTCACA DNA 2: CCGGTGTGAAGACCCACGCATC
## Result 8.05
